# assay-procedure: folding stability dG unfold from trypsin proteolysis; higher = more stable
folding stability dG unfold for assorted sequences
measured-property: folding stability dG unfold (kcal/mol)

# sequence-content, reading-unit, measured
rows = [
    ("SAGGSAGPALEIAKALTELYGAEEVTILDVHPDGYVHLHVRAVDYDDGEPVERELDVIFPIAPDDGSAGGSA [r15_646_TrMRF]", "kcal/mol", 0.164),
    ("SVEKARERLEKLGFKLVSVDPLEDGSVVLTFEFPDNKVVVLVDEDGNARIVAYNPSDGKFSEATFNLDDLSA [r9_2_TrMRF]", "kcal/mol", 2.84),
    ("SAGGMTPSVLSNLSEEERKEAVRDFIIEFIKKAFPNVPEDFSVEEVPVLVYDLKTGKLFEVTVHLEGKSAGG [r13_555_TrMRF]", "kcal/mol", 1.19),
    ("SAGGIAEAIGEAIAKAPGVAEVEVDIEITKIEPTPGDGAYAHIDIRVRARHPVTGEEVELRFDIVFPLDSAG [r5_176_TrMRF]", "kcal/mol", 2.89),
    ("SAGGSAGGSAGGDLVITEVRVEFDPKDGTLRVTARFELPNTGETVEVTLEFEIPYPDGASAGGSAGGSAGGS [r10_296_TrMRF]", "kcal/mol", 2.99),
    ("SAGGSAGGSALEVPSNYLVEVRFPNETRLIPVEDLDAFFEAYPDVPWTDIRVLDPKTGKPISAGGSAGGSAG [r3_134_TrMRF]", "kcal/mol", 2.47),
    ("SAGGSAGGSAGGGKKVKVIIAADKPEEAEKAIEKLEKETDLPLEDVIVIPREEAEKLGLASAGGSAGGSAGG [r7_84_TrMRF]", "kcal/mol", -1.27),
]

====

# assay-procedure: folding stability dG unfold from chymotrypsin proteolysis; higher = more stable
Use true (1) when the recorded folding stability dG unfold is no lower than 2 kcal/mol; use false (0) when it is lower.

# sequence-content, group-label
records = [
    ("SAGGSVLVTLTNPADGTPVTLPTPAEEAEAILASGDTAALEARHPGRPVAAVTVDPVSPRPPVPPGLASAGG [r13_629_JUSTAS]", "false (0)"),
    ("SAGGSKKVDIKPGKVKKVEVKTLPNGKKLLVLYFPLEDGKEKVVVISSDFKTPEEALEAAYKQLGKSAGGSA [r2_347_TrMRF]", "false (0)"),
    ("SAMTEEEKKKKKEEEEKKKRELKIIVVAKTKDGKWKKIAEFTVKNKDMSIEELVKKLKDLGVEEVKIFPSAG [r14_318_TrROS_Hall]", "true (1)"),
    ("SAGGSAGGSAGKIEVEGDVEVTVFPPYGLATVTTPNGERYVLLVETRPDGSKRVLLFSAGSAGGSAGGSAGG [r11_331_TrMRF]", "true (1)"),
    ("SAGGSAPKEGTIWIMIPVRYERDPNGKVKPISAEQIADLFQELGFPIKIDEIFDSPGYIMIRIKVKSAGGSA [r15_225_TrROS]", "true (1)"),
    ("SAGGSAGGSAGGSMKTEEVVYVKTPDAWVRLKKEEAEKLEKETGVKIERESFTLPAGALESAGGSAGGSAGG [r7_185_JUSTAS]", "false (0)"),
    ("SADPLSSILSQALSVEFDPETGKVTITTKDKSIVEKALEEGAENATLTESEDDIYTATIDLPPLPEGVLSAG [r14_115_TrMRF]", "false (0)"),
    ("SAGGSAGGSAGKQPIEMWFMFPNGVAIVLRIKVDPPSPKAKIDAIEVVPVRDPDNGKWRFSAGGSAGGSAGG [r11_919_TrROS]", "false (0)"),
    ("SAGMPLPAEELAERLAKEIEESTDYKVSIEEIKPEGEYVIIKVRVELPEKYKDKGYEEEEFVAIFPGDLSAG [r5_970_TrMRF]", "false (0)"),
    ("SAGGSAGGSPNDMKEVDFPIKFPKEKFKVKIWRHPDDPNRYYIRFPSNGAIFWFDPNGDIEPLSAGGSAGGS [r12_580_TrROS]", "false (0)"),
    ("SAGGSAGGSAGGDPNDKPKEERRIKIKVRPTNVQRDPDNGMLWYSWRLEGLSITIMIPASAGGSAGGSAGGS [r10_962_TrROS]", "true (1)"),
    ("SAGGDALKGLPPGAKVKVERVNGKLVVVVEKVEVKPPPKVTLTLPPGWKLTRLELTEDGTLKAELEPSAGGS [r16_103_TrROS_Hall]", "true (1)"),
    ("SAGGSAGGSMPTLRVKIEVTNPDGEKLELTITVPRDMTLEELKALAEELAKAGYEVRIVEVEPSAGGSAGGS [r12_804_TrROS_Hall]", "true (1)"),
    ("SAGGSAGGSAKIRLIFKTEEEARKAIEALLPEGAKAKIKVEKRKDGKKYVVVEIEFKEEEESAGGSAGGSAG [r3_87_TrROS_Hall]", "true (1)"),
    ("SAGGALILLFPHPESRTVTALFVHPDGGSETIPFPVPESIDSLEEVADRLLREARERFPVPVEVVVASAGGS [r8_166_TrMRF]", "false (0)"),
    ("SGMKSVTTPVSLTINTSPEEAEEFIEKLAKERGIEDVTVVKVTTDPATGTLTVEAELHTTIPPLPPPSSVSA [r9_918_JUSTAS]", "false (0)"),
    ("SAGGSAGGDKAVIVDFNPIEPEAVIYFPKTGKAIKFKFDSLEELRDSIEPSGIPVEIVITPPELSAGGSAGG [r6_27_TrMRF]", "false (0)"),
]

====

# assay-procedure: folding stability dG unfold (combined trypsin and chymotrypsin); higher = more stable
Use Yes when the recorded folding stability dG unfold is no lower than 2 kcal/mol; use No when it is lower.

# sequence-content, group-label
records = [
    ("SAGGSAGGSAGMPKRKITKIETEELPPELIRVTITLPDGTPVPVVVSPDDEEVKAIIEKLSAGGSAGGSAGG [r11_122_JUSTAS]", "No"),
    ("SAGGAVYRNPATGEWYEPGMTEEEREARARAALPPPTVTITVTVTVVFEDNGTTVTATATVTLTVEGSAGGS [r16_387_TrROS_Hall]", "Yes"),
    ("SAGGATRIRVLATNASGEKVELDIPQAIADAIAEALKQGKPIPPGPASVIAAFATSNGYDFEIVDISSAGGS [r8_159_TrMRF]", "Yes"),
    ("SAGGSAGGGDLVVYRLEVRRFEPGTGRLVETRSRTVVVPKEDLPELLERIPPGYEVLRIEAFPESAGGSAGG [r6_776_TrMRF]", "No"),
    ("SAGIKEIAKKLGMPPNNIKIKNIQPQPRRKPDPEDGKPEPEPYPTVSVEIEAPGNGKKREASIPADEIQSAG [r5_517_TrROS]", "No"),
    ("SAGMKPSPEGKTIITIDTSTGKVDVVFPDGKEFTLPFDSSSIEEIIKTIKEKLGYPPEVPFNIDEIEIASAG [r5_923_JUSTAS]", "Yes"),
    ("SAGGSGTTSPVLVEETVFTDGSATYTRKKVELEEVERPPVPPVEIPEEAREAGLAGDYEAAEAILASAGGSA [r2_196_JUSTAS]", "No"),
    ("SAGGPLTLEDLKNMPPGEKLEFTFGGYTYEVEIYKNDNGPPYITVKQRDPHDGEPVEEKRVPADDIVSAGGS [r16_763_TrROS]", "No"),
    ("SAGGSAGGSAGMKVFIFKDPEKAIEAIKEFAGKNGVKYKIIEIETTPDGYVKIKVEFEPISAGGSAGGSAGG [r11_304_TrMRF]", "Yes"),
    ("SAGGSAGGSMDDTEEESSSVSRFLENGERYTTRTKTTTRIRPDGTEEVEVEVTTTPLPPDVPLSAGGSAGGS [r12_927_JUSTAS]", "No"),
    ("SAKLAEEIAKKILPEVKEVKILKIEVKKDPKSKFKVIKIEMLVKMPKGEKKIKIEIKPGKPKIKIIPLDSAG [r14_397_TrMRF]", "Yes"),
    ("SAGGMVIVVKTPGGATSITLGNLTITQDPSTGVAVAEATPEQVEALKKDPALKDIESIEILPEEELKSAGGS [r8_493_JUSTAS]", "No"),
]

====

folding stability dG unfold for assorted sequences
# assay-procedure: folding stability dG unfold from trypsin proteolysis; higher = more stable

# sequence-content, folding stability dG unfold / kcal/mol
data = [
    ("SMLKEIPITVPEEGEVVTVNIEELAKEQGLDPNNVTVTVTSSGPGKVYKITISSNGITITEVGNVPTALLSA [r9_819_JUSTAS]", 0.546),
    ("SGLKPNEVKKFTFSFPVTDPVTGKEVTATVELYVSAGNPFVVVKLTVTPPDGKTETKTFVVPPGATLTIDSA [r9_88_TrMRF]", 1.73),
    ("SMEVKIELTDEEIEAALEAGYEVEIEVRVVEVEYDEETDEVTVKVEVTITIRPVPPPPEVVVDEETGEILSA [r9_396_TrROS_Hall]", 2.1),
    ("SAGGPLTLTIPLPDGTTITVTLTRNPDTPSYTATADITFPDGSVVRIHATINSDGSITIHSVEVFPASAGGS [r16_213_TrMRF]", 4.51),
    ("SAGGSAGGSDDDDAKKAMEQMKPPPIPIKIQVKIEYDPSLGWLKVEIHFFGFGLRITGTIPIDSAGGSAGGS [r20_230_TrROS]", 3.33),
    ("SAGGEEVTIKLSDELRDLVPDAEIRVERLEDGTLRIEIRVRLPAPEPPEPVERREERRVEVRVEVRLESAGG [r13_129_TrROS_Hall]", 1.98),
    ("GSARFEASAFLAELPFPPQRVLVVLVRGEDGRVRLFVFFPDGSVVEFDLETGRVVRVIDLPDAPLPPGLLES [r1_409_TrMRF]", 2.9),
    ("SAGGMPTTSSSAVKLDGGSDSVTTTTLPDGSRVVYIVSSDGKVYKATVTGGTTTWTEVKTVPPAELSSAGGS [r16_48_JUSTAS]", 1.53),
    ("SAGGSGMRKFSPEEAKKKEVVITIPVVTYSPSLKFSPVTVPVTVSGPVTSDEEAKEKVEKAVKELASAGGSA [r2_244_JUSTAS]", -1.03),
    ("SAGDVKVITIKNPDGWQASIALNEDGTVYLMFNSPDQFLDLIEDLGFPITSVEMHPNGMMIFTIELPPSAGG [r19_257_TrROS]", 2.27),
]
